# Assayed system: KiSS-1 receptor (Homo sapiens)
# Experiment notes: Human kisspeptin (KISS1R) small molecule agonists, calcium flux assay in KISS1R-HEK293 cells (AID 1920064); note: % is set by controls: 0 for no effect and ±100 for the full control effect
# Condition: KISS1R-HEK293, calcium flux fluorescence, agonist; series mostly up to 76.8 µM
The source made the active and inactive calls. Calls come from the whole dose curve; as a rule, active = well fitted activation curve with a large enough effect in the repeat runs; inconclusive = weak or mixed curves; inactive = flat fitted curve, though single readings scatter.
Outcome measure: activation

Solved entries:
INSERT INTO results (compound, result) VALUES
  ('Cc1ccc(-c2ccccc2C#N)cc1', 'inactive'),
  ('CCCCCCCCCCCCCCCCCC(=O)OCC(CC)CCCC (configuration not stated)', 'inactive'),
  ('C=CCCCCCCCCCCC', '3.21% [at 6.97 µM] (inactive)'),
  ('CCOC(=S)SSC(=S)OCC', 'inactive'),
  ('O=C(O)c1ccccc1-n1cc(C(=O)O)c(=O)c2cc(Nc3c(F)cc(F)cc3Cl)c(Cl)cc21', 'inactive');

Measured activation of `O=C(Cl)c1ccc(C(=O)Cl)cc1` : inactive

Measured activation of `CCCN[C@H]1CCc2nc(N)sc2C1` : inactive

Measured activation of CNC1(C)C2CCC(C2)C1(C)C (configuration not stated) : inactive

Measured activation of `O=C(O)CCCCCCCCCCCC(=O)O` : inactive

Measured activation of `O=C(Nc1ccc([N+](=O)[O-])cc1Cl)c1cc(Cl)ccc1O` : inactive

Measured activation of CC1(C)C(O)C(C)(C)C1O (configuration not stated) : inactive

Measured activation of `NC[C@H]1O[C@H](O[C@H]2[C@H](O)[C@@H](O[C@H]3O[C@H](CO)[C@@H](O)[C@H](N)[C@H]3O)[C@H](N)C[C@@H]2N)[C@H](N)[C@@H](O)[C@@H]1O` : -0.341% [at 15.8 µM] (inactive)

* * *

# Experiment notes: p53 small molecule agonists, cell-based qHTS assay with rat liver microsomes: qHTS cell viability counter screen (AID 1963580); note: % is set by controls: 0 for no effect and ±100 for the full control effect; nearly all actives have a fitted effect of over 45% in size
# Condition: p53RE-bla HCT-116 + rat microsomes, ATP viability, 16 h; series mostly up to 66 µM
Results filed as inconclusive are left out. Activity calls are given as the source filed them. Calls come from the whole dose curve.
Outcome measure: activity change, negative = cytotoxicity

INSERT INTO assay_data (smiles_code, result) VALUES
  ('Nc1ncnc2c1ncn2[C@@H]1O[C@H](COP(=O)(O)O)[C@@H](O)[C@H]1O', 'inactive'),
  ('O=C1CCCc2ccccc21', 'inactive'),
  ('CC(C)(C)c1ccc(O)c(O)c1', 'inactive'),
  ('CCOC(=O)c1cc(=O)c2c(OCC(COc3cccc4oc(C(=O)OCC)cc(=O)c34)OC(=O)[C@@H](N)CCCCN)cccc2o1', 'inactive');

Measured activity change, negative = cytotoxicity of `CSc1cnccn1` : inactive

Measured activity change, negative = cytotoxicity of `O=C(O)c1ccc(OCCN2CCCCC2)cc1` : inactive

Measured activity change, negative = cytotoxicity of `CC(C)(C)OC(=O)c1cccc(N)c1` : inactive

Measured activity change, negative = cytotoxicity of `CC(C)(O)C(=O)c1ccc(OCCO)cc1` : inactive

Measured activity change, negative = cytotoxicity of `CCCO[Si](OCCC)(OCCC)OCCC` : inactive

Measured activity change, negative = cytotoxicity of `COC(=O)c1c(Cl)c(Cl)c(C(=O)OC)c(Cl)c1Cl` : inactive

Measured activity change, negative = cytotoxicity of `CC(C)(C)C(=O)C1C(=O)c2ccccc2C1=O` : inactive

Measured activity change, negative = cytotoxicity of `CCCCOCCCC` : inactive

Measured activity change, negative = cytotoxicity of `c1ccc(SCCSc2ccccc2)cc1` : inactive
